- test-target: D(1A) dopamine receptor (Homo sapiens)
- Sequence (P21728 whole entry): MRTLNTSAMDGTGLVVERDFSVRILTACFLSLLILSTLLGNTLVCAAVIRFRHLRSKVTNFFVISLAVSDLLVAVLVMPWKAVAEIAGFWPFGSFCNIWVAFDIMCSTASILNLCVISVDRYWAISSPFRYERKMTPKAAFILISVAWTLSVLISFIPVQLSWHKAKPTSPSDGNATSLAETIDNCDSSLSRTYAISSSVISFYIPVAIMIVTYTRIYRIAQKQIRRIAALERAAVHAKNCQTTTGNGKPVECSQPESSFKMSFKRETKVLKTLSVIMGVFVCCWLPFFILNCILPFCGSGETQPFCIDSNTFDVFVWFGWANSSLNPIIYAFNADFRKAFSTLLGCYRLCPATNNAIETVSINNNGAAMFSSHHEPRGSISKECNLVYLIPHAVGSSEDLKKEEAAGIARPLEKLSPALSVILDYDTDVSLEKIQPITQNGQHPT
- measurement-protocol: Displacement of [3H]SCH23390 from human dopamine D1 receptor by PDSP assay
- condition: read-out: Ki
pKi: −log10 of the molar value.
The label depends only on pKi: Yes if it is at least 6, No if it is smaller.

>>> df
                             smiles_record  group
0  Clc1ccc(N2CCN(CCCCc3nc4ccccc4s3)CC2)cc1     No
1    Fc1ccc(OCCCN2CCN(c3ccc(Cl)cc3)CC2)cc1    Yes
2    Fc1ccc(OCCCN2CCC(c3ccc(Cl)cc3)CC2)cc1    Yes

Attention now shifts to the item below.
Reported pKi reaches at least 6 for "Fc1ccc(SCCCN2CCN(c3ccc(Cl)cc3)CC2)cc1" ?
Yes

----------
This listing pairs compounds with measured pKi.
- test-target: D(4) dopamine receptor (Rattus norvegicus, UniProt P30729)
- Sequence (P30729 whole entry): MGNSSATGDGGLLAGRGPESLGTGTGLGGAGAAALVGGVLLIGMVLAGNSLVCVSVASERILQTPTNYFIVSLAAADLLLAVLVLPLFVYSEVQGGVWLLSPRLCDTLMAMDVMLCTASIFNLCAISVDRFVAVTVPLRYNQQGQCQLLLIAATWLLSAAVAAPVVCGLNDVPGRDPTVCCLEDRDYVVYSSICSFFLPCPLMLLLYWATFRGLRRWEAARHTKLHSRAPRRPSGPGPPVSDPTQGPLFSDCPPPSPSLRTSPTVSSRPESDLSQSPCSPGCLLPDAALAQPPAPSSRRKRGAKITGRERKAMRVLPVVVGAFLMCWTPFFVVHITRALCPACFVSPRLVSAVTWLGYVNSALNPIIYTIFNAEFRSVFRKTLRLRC
- measurement-protocol: Displacement of [3H]N-methylspiperone from rat dopamine D4 receptor by PDSP assay
- condition: read-out: Ki
Hey, just a heads up that pKi is the negative log base 10 of the concentration in molar.

Illustrative cases are given below, each with its answer.
>>> print(df.to_string())
                                   compound                               test_target  observed_result
0     Clc1ccc(N2CCN(CCc3nc4ccccc4o3)CC2)cc1  D(4) dopamine receptor (Rattus norvegicus, UniProt P30729)             5.85
1    Clc1ccc(N2CCN(CCCc3cc4ccccc4o3)CC2)cc1  D(4) dopamine receptor (Rattus norvegicus, UniProt P30729)             7.10
2  O=C1c2ccccc2CC1CCN1CCN(c2ccc(Cl)cc2)CC1 (stereo unspecified)  D(4) dopamine receptor (Rattus norvegicus, UniProt P30729)             7.44

// lookup pKi for Fc1ccc2c(c1)CC(CCN1CCN(c3ccc(Cl)cc3)CC1)C2 (stereo unspecified)
7.89

Look up pKi: "c1cnc(N2CCN(CCCc3nc4ccccc4s3)CC2)nc1"
8.41

Query (compound): "Clc1ccc(N2CCN(CCCc3nc4ccccc4o3)CC2)cc1" ; field requested: pKi
6.84

Entry under review: "O=C(CCCN1CCN(c2ccc(Cl)cc2)CC1)c1ccc(F)cc1" . Reported pKi?
7.76

Given the compound "Clc1ccc(N2C[C@H]3C[C@@H]2CN3CCCc2cc3ccccc3o2)cc1" , what is its reported pKi?
5.62
